# Test Protocol: survival rescue of mitochondrial mutant cells in low glucose, primary screen, MELAS cybrids, Rieske KO mouse fibroblasts, CellTiter-Glo (AID 1508586);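 note: test concentration not given here; z relative to plate mean and SD of compound and empty wells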
# Measurement Conditions: Rieske KO mouse fibroblast survival, CellTiter-Glo 72 h
Consider the following compounds; for each one, report its z-score.
Numbers only.

Answer for every listed entry: what is its z-score? The entries follow.
1. CC(=Cc1csc(C)n1)C1CC2O[C@]2(C)CCCC(C)C(O)C(C)C(=O)C(C)(C)C(O)CC(=O)O1 (stereo partly specified)
2. O=C(O)CNC(=O)c1c(O)c2ccccc2n(Cc2ccccc2)c1=O

1: -0.237; 2: -0.159

Answer for every listed entry: what is its z-score? The entries follow.
1. O=C1C=CC[C@@H]2[C@@H]3CCCN4CCC[C@@H](CN12)[C@@H]34
2. CCN[C@@H](C)Cc1cccc(C(F)(F)F)c1
3. NC(=O)CS(=O)C(c1ccccc1)c1ccccc1 (stereo unspecified)
4. N#Cc1cnn(-c2ccc(Cl)cc2)c1N
5. Cc1cc(O)ccc1Cl
6. CC(CCc1ccccc1)NC(C)C(O)c1ccc(O)cc1 (stereo unspecified)

[0.595, 0.177, 0.0685, -0.085, -0.163, -0.62]

Answer for every listed entry: what is its z-score? The entries follow.
1. CCCC[N+]1(C)[C@@H]2CC(OC(=O)C(CO)c3ccccc3)C[C@H]1[C@@H]1O[C@@H]12 (stereo partly specified)
2. CC(=O)OCC1=C(C(=O)O)N2C(=O)[C@@H](N)[C@H]2SC1
3. Cc1nc(-c2ccccn2)nc(NCCc2ccccc2)c1Cl

[0.426, -0.158, 3.58]

----------
Consider the following compounds; for each one, report its fold change.
# Test Protocol: sensitizers of A549 cells to miR-34 induction, primary screen, imaging, A549 dox-inducible miR-34, nuclei and caspase counts (AID 1347080); note: test concentration not given here
# Measurement Conditions: A549 miR-34 inducible, Hoechst nuclei count, 48 h; measured here: relative caspase fold change +Dox/-Dox
One number for each entry.

>  <Compound>
CNCCc1cnc[nH]1

>  <fold change>
0.943

$$$$

Answer for every listed entry: what is its fold change? The entries follow.
1. COc1cc(CNC(=O)CCCCCCC(C)C)c(I)cc1O
2. CN1CC[C@@H]2CN3CCc4cccc(c43)[C@@H]2C1
3. CN1CC[C@@]2(C)c3cc(O)ccc3N(C)[C@H]12

1: 0.817; 2: 0.673; 3: 0.758

Answer for every listed entry: what is its fold change? The entries follow.
1. CN1Cc2ccccc2[C@@H]2c3cccc4[nH]cc(c34)C[C@H]21
2. CCCN(CCCN)N(O)N=O

0.677
0.825

Answer for every listed entry: what is its fold change? The entries follow.
1. CC(CC(C(N)=O)(c1ccccc1)c1ccccc1)N(C)C (stereo not given)
2. CC(Cc1ccc(OCC(=O)O)cc1)NCC(O)c1cccc(Cl)c1 (stereo not given)
3. Oc1ccc(C2(c3ccc(O)cc3)CCCCC2)cc1
4. C=C1[C@@H](O)[C@@H]2O[C@@]3(CCC2O[C@@H]1[C@@H](O)C[C@H](C)C1O[C@@]2(CCCCO2)CC[C@H]1C)CC[C@H](/C=C/[C@@H](C)[C@@H]1CC(C)=C[C@@]2(O[C@H](C[C@@](C)(O)C(=O)O)CC[C@H]2O)O1)O3 (stereo not given in full)

5.38
2.14
0.41
0.814
